Target: Aldehyde dehydrogenase, dimeric NADP-preferring (Homo sapiens, UniProt P30838)
Sequence (P30838 whole entry): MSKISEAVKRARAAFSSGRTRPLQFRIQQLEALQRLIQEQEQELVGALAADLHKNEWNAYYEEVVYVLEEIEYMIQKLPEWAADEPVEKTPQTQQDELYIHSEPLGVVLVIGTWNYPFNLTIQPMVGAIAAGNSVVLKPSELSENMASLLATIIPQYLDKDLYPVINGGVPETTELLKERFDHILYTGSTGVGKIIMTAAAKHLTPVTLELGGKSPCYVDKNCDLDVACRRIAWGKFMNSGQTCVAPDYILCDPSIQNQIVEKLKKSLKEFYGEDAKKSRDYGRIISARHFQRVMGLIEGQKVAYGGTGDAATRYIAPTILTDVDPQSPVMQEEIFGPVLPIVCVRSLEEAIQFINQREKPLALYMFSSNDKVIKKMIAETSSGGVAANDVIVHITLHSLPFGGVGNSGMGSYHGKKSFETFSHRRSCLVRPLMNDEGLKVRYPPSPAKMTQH
Test: Inhibition of full length recombinant human ALDH3A1 expressed in Escherichia coli BL21(DE3) assessed as reduction in dehydrogenase activity by measuring NAD(P)H level preincubated for 2 mins followed by addition of benzaldehyde as substrate in presence of NADP+ by spectrophotometric method
Settings: read-out: IC50
parameterMeasured: pIC50
In plain terms, pIC50 is the concentration in mol/L turned into minus its base-10 logarithm.

Exam item: pIC50 for Cc1cc(=O)oc2cc3c(cc12)CCC(=O)O3 ?
Marked response: 5.27

---

Target or system Aldehyde dehydrogenase, mitochondrial (Homo sapiens, UniProt P05091): recorded pKi listed per item.
In plain terms, pKi is the concentration in mol/L turned into minus its base-10 logarithm.

• Cc1oc2cc3oc(=O)c(CCC(=O)N4CCCCC4)c(C)c3cc2c1C = 5.96

Exam item: pKi for COC(=O)C(C)Oc1ccc2c(C)cc(=O)oc2c1 (centres undefined) ?
Marked response: 6.51

Exam item: Further, for CCCc1c(C)c2cc3c(C)c(C)oc3cc2oc1=O ?
Marked response: 7.72

Exam item: Further, for C/C(=N\O)c1cc2cc(Br)ccc2oc1=O ?
Marked response: 5.62

---

molecular target: Aldehyde dehydrogenase, dimeric NADP-preferring (Homo sapiens) (UniProt P30838); experiment: Inhibition of full length recombinant human ALDH3A1 expressed in Escherichia coli BL21(DE3) assessed as remaining dehydrogenase activity by measuring NAD(P)H level at 10 uM preincubated for 2 mins followed by addition of propionaldehyde as substrate in presence of NAD+ by spectrophotometric method
Known Activity of a selection of molecules
I only need the number, in %, no unit after it.

• Cc1c(C)c2cc3c(-c4ccccc4)coc3cc2oc1=O = 88.9

Exam item: Activity for Cc1oc2cc3oc(=O)c4ccccc4c3cc2c1C ?
Marked response: 93.4

Exam item: Further, for CC(=O)C(C)Oc1ccc2c(C)cc(=O)oc2c1 (stereo unspecified) ?
Marked response: 101

Exam item: Further, for Cc1cc(=O)oc2cc(OC(C)C(=O)O)ccc12 (stereo unspecified) ?
Marked response: 93.9

Exam item: Further, for Cc1cc(=O)oc2cc3c(cc12)CCC(=O)O3 ?
Marked response: 53.6

Exam item: Further, for CC(=O)C(C)Oc1ccc2ccc(=O)oc2c1 (stereo unspecified) ?
Marked response: 106

Ref: ChEMBL document CHEMBL4007427
